- TARGET_DESC: Schistosoma mansoni thioredoxin glutathione reductase (TGR)
- EXPERIMENTAL_DETAILS: qHTS Assay for the Inhibitors of Schistosoma Mansoni Peroxiredoxins; further: nearly all actives have a fitted effect of over 60% in size
- CONDITION_INFO: purified TGR, DTNB reduction, TNB absorbance 405 nm; series mostly up to 114 µM
Among all 360,000 compounds or so, about 11,000 (3.1%) were called active. Roughly 4% stayed inconclusive and do not appear here. The call rests on the fitted dose curve; in most records, active means well fitted inhibition curve with a large enough effect; inconclusive means small, poorly fitted or top-dose-only effect; inactive means no such curve, though single readings can be large or run the other way. The list comes from a sample in which actives are over-represented; it also holds close analogues and randomly drawn compounds.
Assign a class; possible classes are active, inactive

Task item: Test call for this molecule, please: CCOc1ccccc1NC(=O)C1CCCN(S(=O)(=O)c2cn(C)cn2)C1 (stereo not drawn)
Reply: inactive

Task item: Test call for this molecule, please: CCCN(CCC)C(=O)Cn1c(=O)n(-c2ccc(Cl)cc2)c(=O)c2c3c(sc21)CCCCC3
Reply: inactive

Task item: Test call for this molecule, please: COC(=O)C(NC(C)=O)(Nc1nc2c(s1)CCCC2)C(F)(F)F (stereo not drawn)
Reply: active

Task item: Test call for this molecule, please: Cc1ccc(Nc2c(-c3ccc(Cl)cc3)nc3sccn23)c(C)c1
Reply: inactive

Task item: Test call for this molecule, please: CCCSc1ncc(Cl)c(C(=O)Nc2sc3c(c2C(=O)NCCOC)CCCC3)n1
Reply: inactive

Task item: Test call for this molecule, please: CC(=O)Nc1ccc(S(=O)(=O)N2CCN(c3ccccc3)CC2)cc1
Reply: inactive

Task item: Test call for this molecule, please: O=C(CC(c1cccs1)N1Cc2ccccc2C1=O)Nc1ccc(F)cc1F (stereo not drawn)
Reply: inactive

Task item: Test call for this molecule, please: COc1ccc(NC(=O)c2ccc3nc(C(C)C)oc3c2)cc1OC
Reply: inactive

Task item: Test call for this molecule, please: O=C(CSc1ncc(S(=O)(=O)c2ccc(Br)cc2)c(=O)[nH]1)Nc1ccc2c(c1)OCCO2
Reply: inactive

Task item: Test call for this molecule, please: CC(C)C12CN3CC(C(C)C)(CN(C1)C3c1ccc(OCc3ccccc3)cc1)C2=O (stereo not drawn)
Reply: inactive

Task item: Test call for this molecule, please: CCOC(=O)c1cc(NC(=O)c2ccc(F)cc2)c(=O)n2c1oc1ccccc12
Reply: inactive

Task item: Test call for this molecule, please: COc1ccccc1CNC(=O)c1ccc(-n2c(C)cc3c2CCCC3)cc1
Reply: inactive

Task item: Test call for this molecule, please: Cc1ccc(-c2cc(C(F)(F)F)c(C#N)c(SCC(=O)Nc3ccccc3)n2)cc1
Reply: inactive

Task item: Test call for this molecule, please: O=C(CCl)Nc1ccc(Sc2ccc(NC(=O)CCl)cc2)cc1
Reply: active

Task item: Test call for this molecule, please: C=CCn1c(SCc2c(C)noc2C)nc2sc3c(c2c1=O)CCC(C)C3 (stereo not drawn)
Reply: inactive

Task item: Test call for this molecule, please: COC(=O)c1scc(-c2ccccc2)c1S(=O)(=O)Nc1ccccc1
Reply: inactive

Task item: Test call for this molecule, please: CC(=O)Nc1ccc(S(=O)(=O)N2CCSCC2)cc1
Reply: inactive

Task item: Test call for this molecule, please: CCOc1ccc(N(CC(=O)Nc2cccc(OC)c2)S(C)(=O)=O)cc1
Reply: inactive

Task item: Test call for this molecule, please: COc1cc(Cl)c(NC(=O)CC(C)S(=O)(=O)c2cc3c(cc2C)NC(=O)CO3)c(OC)c1 (stereo not drawn)
Reply: inactive

Task item: Test call for this molecule, please: Cc1ccc(S(=O)(=O)c2nc(-c3cccs3)oc2NCc2cccnc2)cc1
Reply: inactive

Task item: Test call for this molecule, please: CCCN1CCN(CCCNC(=O)Cn2nc(CC)n3c(cc4occc43)c2=O)CC1
Reply: inactive

Task item: Test call for this molecule, please: CC(C)c1c(O)nc(SCCOc2ccc(Cl)cc2)[nH]c1=O
Reply: inactive

Task item: Test call for this molecule, please: Cc1cccc(N(CC(=O)N2CCOCC2)S(C)(=O)=O)c1
Reply: inactive

Task item: Test call for this molecule, please: O=C(Nc1ccc(Sc2ccc(Br)cc2)cc1)c1ccco1
Reply: inactive

Task item: Test call for this molecule, please: O=C(CCC(=O)N1CC2CCCN2c2ccccc21)NCc1ccccc1Cl (stereo not drawn)
Reply: inactive

Task item: Test call for this molecule, please: COc1ccc2c(c1)c(N1CCCC1=O)c(C(=O)Nc1ccc(OC)c(Cl)c1)n2C
Reply: inactive

Task item: Test call for this molecule, please: O=C(Nc1ccc2c(c1)OCO2)c1cc(-c2cccc(Cl)c2)on1
Reply: inactive

Task item: Test call for this molecule, please: Cc1ccc(Cn2cc(CCC(=O)NCc3ccc(OC(C)C)cc3)c3ccccc32)cc1
Reply: inactive

Task item: Test call for this molecule, please: CCOCCCNC(=S)Nc1ccc2nc(N3CCN(CC)CC3)cc(C)c2c1
Reply: active

Task item: Test call for this molecule, please: Cc1coc2c(O)cc3c(c12)OC1(N2CCCCC2)C(=O)NCCCC31 (stereo not drawn)
Reply: active

Task item: Test call for this molecule, please: COc1ccc(CCNCc2c(C(=O)O)c(C)n(Cc3cccc(C)c3)c2C)cc1OC
Reply: inactive

Task item: Test call for this molecule, please: C=CCn1c(SCC(=O)/C(C#N)=C(\C)N)nc2sc(C)c(C)c2c1=O
Reply: inactive

Task item: Test call for this molecule, please: C=CCn1c(=S)[nH]c2scc(-c3ccco3)c2c1=O
Reply: active

Task item: Test call for this molecule, please: Cc1csc2nc(COC(=O)c3ccc(NC(=O)COc4ccccc4F)cc3)cc(=O)n12
Reply: inactive

Task item: Test call for this molecule, please: CC(C)(CCl)C(=O)Nc1ccc(Sc2ccc(F)cc2)cc1
Reply: inactive

Task item: Test call for this molecule, please: COc1cccc(-c2nc(S(=O)(=O)c3ccc(C)cc3)c(NCc3ccccc3)o2)c1
Reply: active

Task item: Test call for this molecule, please: Cc1cc(C)cc(OC(C)C(=O)Nc2nc3c(s2)CCCC3)c1 (stereo not drawn)
Reply: inactive

Task item: Test call for this molecule, please: COC(=O)CN(c1cccc(C(C)=O)c1)S(C)(=O)=O
Reply: active

Task item: Test call for this molecule, please: CCOC(=O)C(NC(=O)CC(C)C)(Nc1sc2c(c1C(N)=O)CCCC2)C(F)(F)F (stereo not drawn)
Reply: inactive

Task item: Test call for this molecule, please: CC(C)CNC(=S)NC(=O)c1ccc(Cl)cc1
Reply: active

Task item: Test call for this molecule, please: COc1ccc(CNC(=O)C2=Cc3cccc(OC)c3OC2)cc1OC
Reply: inactive

Task item: Test call for this molecule, please: Cc1ccc(C)c(N2CCN(S(=O)(=O)c3ccc4c(c3)C(C(C)C)C(=O)N4)CC2)c1 (stereo not drawn)
Reply: inactive

Task item: Test call for this molecule, please: CCOC(=O)c1c(NC(C)=O)c2c3c(sc2n1Cc1c(C)cc(C)cc1C)CCCC3
Reply: inactive

* * *

- TARGET_DESC: Schistosoma mansoni thioredoxin glutathione reductase (TGR)
- EXPERIMENTAL_DETAILS: qHTS Assay for the Inhibitors of Schistosoma Mansoni Peroxiredoxins; further: nearly all actives have a fitted effect of over 60% in size
- CONDITION_INFO: purified TGR, DTNB reduction, TNB absorbance 405 nm; series mostly up to 114 µM
Hit rate of the full screen: of about 360,000 compounds, about 11,000 (3.1%) were called active. Roughly 4% stayed inconclusive and do not appear here. Calls follow the shape of the dose curve; as a rule, active = well fitted inhibition curve with a large enough effect; inconclusive = small, poorly fitted or top-dose-only effect; inactive = no such curve, though single readings can be large or run the other way. Only a selection was taken, and actives are over-represented in it overall.
Assign a class; possible classes are 1 = active, -1 = inactive

Task item: Test call for this compound, please: C#CCOCCOCCOCCNc1nc(N2CCN(C(=O)C(Cc3ccc(O)cc3)n3cc(C(N)CC(C)C)nn3)CC2)nc(N2CCN(C(=O)C(Cc3ccc(O)cc3)n3cc(C(N)C(C)CC)nn3)CC2)n1 (stereo not drawn)
Reply: -1

Task item: Test call for this compound, please: Cc1noc(/C=C/N(C)C)c1S(=O)(=O)N1CCCC(C(=O)Nc2cccc(F)c2)C1 (stereo not drawn)
Reply: -1

Task item: Test call for this compound, please: CCOC(=O)/C=C/C(=O)OCC(=O)NC(c1ccccc1)c1ccccc1
Reply: 1

Task item: Test call for this compound, please: CCC1CCCCN1S(=O)(=O)c1ccc(NC(=O)c2cc(=O)c3ccccc3o2)cc1 (stereo not drawn)
Reply: -1

Task item: Test call for this compound, please: C#CCOCCOCCOCCNc1nc(N2CCN(C(=O)[C@H](Cc3ccc(O)cc3)n3cc(C(N)CC(C)C)nn3)CC2)nc(N2CCN(C(=O)[C@H](CCC(=O)O)n3cc(C(N)[C@H](C)CC)nn3)CC2)n1 (stereo partly drawn)
Reply: -1

Task item: Test call for this compound, please: O=C(Cc1ccc(-c2ccccc2)cc1)NC(c1ccccc1)c1ccccc1
Reply: -1

Task item: Test call for this compound, please: S=C(NCC1CCCO1)N1CCN(c2ccc(Cl)c(Cl)c2)CC1 (stereo not drawn)
Reply: -1

Task item: Test call for this compound, please: CCOC(=O)C(C(=O)OCC)C(C#N)c1ccccc1 (stereo not drawn)
Reply: -1

* * *

- TARGET_DESC: Schistosoma mansoni thioredoxin glutathione reductase (TGR)
- EXPERIMENTAL_DETAILS: qHTS Assay for the Inhibitors of Schistosoma Mansoni Peroxiredoxins; further: nearly all actives have a fitted effect of over 60% in size
- CONDITION_INFO: purified TGR, DTNB reduction, TNB absorbance 405 nm; series mostly up to 114 µM
About 11,000 (3.1%) of roughly 360,000 compounds were called active. Inconclusive results (about 4%) are left out. The call rests on the fitted dose curve; in most records, active means well fitted inhibition curve with a large enough effect; inconclusive means small, poorly fitted or top-dose-only effect; inactive means no such curve, though single readings can be large or run the other way. What follows is part of a selection rich in actives, with near analogues and random picks from the rest.
Assign a class; possible classes are t = active, f = inactive

Task item: Test call for this molecule, please: Cc1cnc(C(=O)OCC(=O)Nc2ccc(Cl)cc2Cl)cn1
Reply: f

Task item: Test call for this molecule, please: CC1CSc2nnc(CCc3ccccc3)n21 (stereo unspecified)
Reply: f

Task item: Test call for this molecule, please: Cc1cnc(C(=O)Oc2cccc(Cl)c2Cl)cn1
Reply: t

Task item: Test call for this molecule, please: Cc1nnc2n1N=C(c1ccccc1)CS2
Reply: t

Task item: Test call for this molecule, please: CN(C)CC1Oc2ccccc2OC1(O)c1ccccc1 (stereo unspecified)
Reply: t

Task item: Test call for this molecule, please: Cc1nn(C)c2c1c(C(F)(F)F)cc(=O)n2C(C)C(=O)NCc1ccc(Cl)cc1 (stereo unspecified)
Reply: f
